A collection of compounds and their measured GI50
- System: UACC-257
- procedure text: NCI tumour cell line growth inhibition, 48 h
Calls of active or inactive are those of the source. Cut-off read from the data, not from the text of the source: active = GI50 up to about 1.1 µM and inactive = higher.
measure name: GI50

- compound: "COC(=O)C1=C(\\O)C[C@@]2(C)CC[C@@H](C(=O)OC)C2C/C=C\\1C(=O)OC (stereo partly drawn)"
  test system: "UACC-257"
  recorded result: "72.8 µM (inactive)"
- compound: "CN(CCNC(=O)c1c[nH]c2c1Cc1ccccc1-2)CCNC(=O)c1c[nH]c2c1Cc1ccccc1-2"
  test system: "UACC-257"
  recorded result: "43.8 µM (inactive)"
- compound: "COc1ccc(/C=C/c2cc(OC)c(O[Si](C)(C)C(C)(C)C)c(OC)c2)cc1"
  test system: "UACC-257"
  recorded result: "28.4 µM (inactive)"
- compound: "c1csc(-c2ccsc2-c2ccsc2)c1"
  test system: "UACC-257"
  recorded result: "> 100 µM (inactive)"
- compound: "C=C1CC(Cn2cc(C)c(=O)[nH]c2=O)(c2ccc(-c3ccccc3)cc2)OC1=O (stereo not drawn)"
  test system: "UACC-257"
  recorded result: "1.44 µM (inactive)"
- compound: "N#Cc1cnc(-n2[nH]c3c(c2=O)CCCC3)[nH]c1=O"
  test system: "UACC-257"
  recorded result: "55 µM (inactive)"
- compound: "C=C1CC2CCCC12C=O (stereo not drawn)"
  test system: "UACC-257"
  recorded result: "> 10 µM (inactive)"
- compound: "[O-]c1c2c(nn1-c1ccc(F)cc1)c1ccccc1c[n+]2Cc1ccccc1"
  test system: "UACC-257"
  recorded result: "11.5 µM (inactive)"
- compound: "Brc1ccc2c([C@H]3CN[C@@H](c4c[nH]c5cc(Br)ccc45)CN3)c[nH]c2c1"
  test system: "UACC-257"
  recorded result: "14.9 µM (inactive)"
- compound: "O=C(Nc1ccn(CCOC(=O)c2ccccc2)c(=O)n1)c1ccccc1"
  test system: "UACC-257"
  recorded result: "> 100 µM (inactive)"
- compound: "O=S1(=O)OCCCOS(=O)(=O)C1Br"
  test system: "UACC-257"
  recorded result: "> 100 µM (inactive)"
- compound: "CC(=O)N/N=C1\\CC(C)(C)C2CCC1C2 (stereo not drawn)"
  test system: "UACC-257"
  recorded result: "> 100 µM (inactive)"
- compound: "CC(=O)Oc1c(OC(C)C)cc(=O)n2ccsc12"
  test system: "UACC-257"
  recorded result: "> 100 µM (inactive)"
- compound: "C[n+]1cn(-c2nc3ccccc3nc2[N-]S(=O)(=O)c2ccccc2)c2ccccc21"
  test system: "UACC-257"
  recorded result: "> 100 µM (inactive)"
- compound: "CC(C)C1OC(=O)C=C1Sc1ccccc1 (stereo not drawn)"
  test system: "UACC-257"
  recorded result: "> 100 µM (inactive)"
- compound: "COc1cc(C2S/C(=C/c3ccccc3)C(=O)N2c2cccc([N+](=O)[O-])c2)cc(OC)c1OC (stereo not drawn)"
  test system: "UACC-257"
  recorded result: "> 100 µM (inactive)"
- compound: "COc1ccc(Br)c2c1CC(C(=O)O)CC2 (stereo not drawn)"
  test system: "UACC-257"
  recorded result: "> 100 µM (inactive)"
- compound: "NS(=O)(=O)c1ccc(NNc2c3ccccc3nc3c(C(=O)Nc4ccc(S(=O)(=O)Nc5ncccn5)cc4)cccc23)cc1"
  test system: "UACC-257"
  recorded result: "> 25 µM (inactive)"
- compound: "COC(=O)c1c(O)ccc2c1c1c(n2Cc2cc(OC)cc(OC)c2)C(=O)c2ccccc2C1"
  test system: "UACC-257"
  recorded result: "67 µM (inactive)"
- compound: "O=C1c2ccccc2C(=O)c2c(Nc3cc4c5c(ccc6c7ccc8c9c(cc(Nc%10cccc%11c%10C(=O)c%10ccccc%10C%11=O)c(c3c56)c97)-c3ccccc3C8=O)C(=O)c3ccccc3-4)cccc21"
  test system: "UACC-257"
  recorded result: "> 100 µM (inactive)"
- compound: "COc1cccc(C2=NC(C(C)C)CO2)c1 (stereo not drawn)"
  test system: "UACC-257"
  recorded result: "> 100 µM (inactive)"
- compound: "CCOC(=O)CC[C@H](NC(=O)N[C@H](C)c1ccccc1)C(=O)OCC"
  test system: "UACC-257"
  recorded result: "18.3 µM (inactive)"
- compound: "COC[C@@H]1[C@H]2OC(C)(C)O[C@H]2C(=O)N1C(=O)c1ccc(OC)cc1"
  test system: "UACC-257"
  recorded result: "> 100 µM (inactive)"
- compound: "O=CN/C=C/c1ccccc1O"
  test system: "UACC-257"
  recorded result: "> 100 µM (inactive)"
- compound: "Cc1c2c(OCC(O)CN3CCN(c4ccccc4)CC3)nn(C)c(=O)c2c(C)n1-c1ccccc1 (stereo not drawn)"
  test system: "UACC-257"
  recorded result: "28 µM (inactive)"
- compound: "Cc1ccc(NC(=O)SCCC(=O)O)cc1"
  test system: "UACC-257"
  recorded result: "> 100 µM (inactive)"
- compound: "Cc1nn(-c2nc3ccccc3s2)c2c1C(=O)c1ccccc1-2"
  test system: "UACC-257"
  recorded result: "> 100 µM (inactive)"
- compound: "NC(CCCCNC(=O)C(Cc1ccccc1)NC(=O)OCc1ccccc1)C(=O)NC(CCCCNC(=O)C(Cc1ccccc1)NC(=O)OCc1ccccc1)C(=O)NC(CCCCNC(=O)C(Cc1ccccc1)NC(=O)OCc1ccccc1)C(=O)NC(CCCCNC(=O)C(Cc1ccccc1)NC(=O)OCc1ccccc1)C(=O)NC(CCCCNC(=O)C(Cc1ccccc1)NC(=O)OCc1ccccc1)C(=O)NC(CCCCNC(=O)C(Cc1ccccc1)NC(=O)OCc1ccccc1)C(=O)O (stereo not drawn)"
  test system: "UACC-257"
  recorded result: "> 100 µM (inactive)"
